Taken from paper PMC7576482.

Target: soluble epoxide hydrolase (sEH) (Homo sapiens, UniProt P34913)
Property Name: IC50 (µM)

* C[C@H]1[C@H](C)CC[C@]2(C(=O)O)CC[C@]3(C)C(=CC[C@@H]4[C@@]5(C)CC[C@H](O)C(C)(C)[C@@H]5CC[C@]43C)[C@H]12 [Compound 2, ursolic acid] | 84.5

====

Target: soluble epoxide hydrolase (sEH) (Homo sapiens, UniProt P34913)
Construct: purchased Cayman (Ann Arbor, MI, USA) 10011669
Experiment: sEH enzyme kinetic study (Lineweaver-Burk and Dixon plots)
Assay type: biochemical
Settings: Lineweaver-Burk plots
Property Name: Binding Mode

* C[C@@H]1CC[C@]2(C(=O)O)CC[C@]3(C)C(=CC[C@@H]4[C@@]5(C)CC(=O)[C@H](O)C(C)(C)[C@@H]5CC[C@]43C)[C@@H]2[C@]1(C)O [Compound 4, 2-oxopomolic acid] | Noncompetitive
* C[C@H]1[C@H](C)CC[C@]2(C(=O)O)CC[C@]3(C)C(=CC[C@@H]4[C@@]5(C)CC[C@H](O)C(C)(C)[C@@H]5CC[C@]43C)[C@H]12 [Compound 2, ursolic acid] | Noncompetitive
* C[C@H]1[C@H](C)CC[C@]2(C(=O)O)CC[C@]3(C)C(=CC[C@@H]4[C@@]5(C)C[C@@H](O)[C@H](O)C(C)(C)[C@@H]5CC[C@]43C)[C@H]12 [Compound 3, corosolic acid] | Noncompetitive
* O=c1c(OC2O[C@H](CO)[C@@H](O)[C@@H]2O)c(-c2ccc(O)c(O)c2)oc2cc(O)cc(O)c12 (stereo in doubt) [Compound 1, quercetin 3-O-arabinofuranoside] | Mixed

====

Target: soluble epoxide hydrolase (sEH) (Homo sapiens, UniProt P34913)
Sequence (P34913 1-555): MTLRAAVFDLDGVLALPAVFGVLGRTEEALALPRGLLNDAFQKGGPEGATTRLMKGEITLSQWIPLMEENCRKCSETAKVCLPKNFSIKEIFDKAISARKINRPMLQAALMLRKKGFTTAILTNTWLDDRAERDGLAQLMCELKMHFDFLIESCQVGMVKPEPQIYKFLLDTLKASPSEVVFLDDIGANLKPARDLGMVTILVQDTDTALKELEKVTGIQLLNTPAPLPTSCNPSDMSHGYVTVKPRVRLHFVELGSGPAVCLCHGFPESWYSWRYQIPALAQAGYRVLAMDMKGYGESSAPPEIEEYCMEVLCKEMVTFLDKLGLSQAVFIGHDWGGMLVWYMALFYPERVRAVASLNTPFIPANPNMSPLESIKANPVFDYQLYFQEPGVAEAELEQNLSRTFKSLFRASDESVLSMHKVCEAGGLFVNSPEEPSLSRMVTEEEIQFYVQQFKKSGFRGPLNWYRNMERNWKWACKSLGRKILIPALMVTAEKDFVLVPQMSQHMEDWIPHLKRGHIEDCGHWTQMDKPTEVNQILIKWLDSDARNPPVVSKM
pKi: −log10 of the molar value.
Property Name: pKi

• O=c1c(OC2O[C@H](CO)[C@@H](O)[C@@H]2O)c(-c2ccc(O)c(O)c2)oc2cc(O)cc(O)c12 (stereo in doubt) [Compound 1, quercetin 3-O-arabinofuranoside] = 4.40
• C[C@@H]1CC[C@]2(C(=O)O)CC[C@]3(C)C(=CC[C@@H]4[C@@]5(C)CC(=O)[C@H](O)C(C)(C)[C@@H]5CC[C@]43C)[C@@H]2[C@]1(C)O = 5.54
• C[C@H]1[C@H](C)CC[C@]2(C(=O)O)CC[C@]3(C)C(=CC[C@@H]4[C@@]5(C)CC[C@H](O)C(C)(C)[C@@H]5CC[C@]43C)[C@H]12 = 4.41
